Tested on: ECHCG = Echinochloa crus-galli
Protocol Description: Pre-emergence herbicidal activity, glasshouse pot test
Assay type: in vivo
Conditions Used: comparison of enantiomers, 62.5 g/Ha
Recorded Endpoint: ECHCG damage score (0-5)

Please review the following examples before continuing.
COC[C@@H]1C(O)N(c2cc(C(C)(C)C)on2)C(=O)N1C (some centres unmarked) | 1
CCO[C@H]1C(O)N(c2cc(C(C)(C)C)on2)C(=O)N1C (single isomer, unassigned) [A2 S-enantiomer, reference compound] | 0
CCO[C@H]1C(O)N(c2cc(C(C)(C)F)on2)C(=O)N1C (stereo partly drawn) [A5 S-enantiomer, reference compound] | 0

Query string: Please report the measured ECHCG damage score (0-5) for CCO[C@@H]1C(O)N(c2cc(C(C)(C)C)on2)C(=O)N1C (single isomer, unassigned)
Result string: 5

Query string: Please report the measured ECHCG damage score (0-5) for CCO[C@@H]1C(O)N(c2cc(C(C)(C)F)on2)C(=O)N1C (some centres unmarked)
Result string: 5

Query string: Please report the measured ECHCG damage score (0-5) for COC[C@H]1C(O)N(c2cc(C(C)(C)C)on2)C(=O)N1C (stereo partly drawn) [A4 S-enantiomer, reference compound]
Result string: 0

Query string: Please report the measured ECHCG damage score (0-5) for CO[C@H]1C(O)N(c2cc(C(C)(C)C)on2)C(=O)N1C (stereo partly drawn) [A1 S-enantiomer, reference compound]
Result string: 0

Query string: Please report the measured ECHCG damage score (0-5) for CO[C@@H]1C(O)N(c2cc(C(C)(C)C)on2)C(=O)N1C (some centres unmarked)
Result string: 5

----------
Test system: ABUTH = Abutilon theophrasti
Protocol Description: Pre-emergence herbicidal activity, glasshouse pot test
Format: in vivo
Design: key: 5=total damage to plant; 0=no damage to plant
Conditions Used: comparison of enantiomers, 62.5 g/Ha
Description: Seeds of a variety of test species were sown in standard soil in pots. […] After 13 days, the test was evaluated (5=total damage to plant; 0=no damage to plant). […]
Overview of recorded ABUTH damage score (0-5) for various compounds

CCO[C@H]1C(O)N(c2cc(C(C)(C)F)on2)C(=O)N1C (stereo partly drawn) [A5 S-enantiomer, reference compound] | 0

Query string: Give ABUTH damage score (0-5); test system ABUTH = Abutilon theophrasti; compound COC[C@@H]1C(O)N(c2cc(C(C)(C)C)on2)C(=O)N1C (some centres unmarked) [Example A4]
Result string: 1

Query string: Give ABUTH damage score (0-5); test system ABUTH = Abutilon theophrasti; compound CCO[C@@H]1C(O)N(c2cc(C(C)(C)C)on2)C(=O)N1C (single isomer, unassigned) [Example A2]
Result string: 3

Query string: Give ABUTH damage score (0-5); test system ABUTH = Abutilon theophrasti; compound CO[C@H]1C(O)N(c2cc(C(C)(C)C)on2)C(=O)N1C (stereo partly drawn) [A1 S-enantiomer, reference compound]
Result string: 0

Query string: Give ABUTH damage score (0-5); test system ABUTH = Abutilon theophrasti; compound CCO[C@H]1C(O)N(c2cc(C(C)(C)C)on2)C(=O)N1C (single isomer, unassigned) [A2 S-enantiomer, reference compound]
Result string: 1

Query string: Give ABUTH damage score (0-5); test system ABUTH = Abutilon theophrasti; compound CCO[C@@H]1C(O)N(c2cc(C(C)(C)F)on2)C(=O)N1C (some centres unmarked) [Example A5]
Result string: 5

Query string: Give ABUTH damage score (0-5); test system ABUTH = Abutilon theophrasti; compound CO[C@@H]1C(O)N(c2cc(C(C)(C)C)on2)C(=O)N1C (some centres unmarked) [Example A1]
Result string: 4

Query string: Give ABUTH damage score (0-5); test system ABUTH = Abutilon theophrasti; compound COC[C@H]1C(O)N(c2cc(C(C)(C)C)on2)C(=O)N1C (stereo partly drawn) [A4 S-enantiomer, reference compound]
Result string: 0
